Value source: patent US11584766B2

experiment: Solubility (2.5% v/v DMSO/water); format: physicochemical
Parameter: Solubility (2.5% v/v DMSO/water)

[[record]]
molecule = "COCCOCCOCCOCCOC(=O)CC1CN(C(=O)CCCCCNC(=O)/C=C/c2cccnc2)c2ccccc21 (stereo not drawn) [DGMS-RAR-PEG3]"
endpoint_result = "Good"

[[record]]
molecule = "Cl.O=C(/C=C/c1cccnc1)NCCCCCC(=O)N1c2ccccc2CC1c1ccccc1 (stereo not drawn) [DGMS-RAR-7•HCl]"
endpoint_result = "Good"


* * *

Structures can show the parent of a compound that is named as a salt.
Below are IC50 values measured for NAMPT (Homo sapiens, UniProt P43490).
Write the answer as a number in nM, unit excluded.

Take a look at these entries with their results.
[[record]]
compound = "CC[Si]1(CC)c2ccccc2N(C(=O)CCCCCNC(=O)/C=C/c2cccnc2)C1C (stereo not drawn) [DGMS-RAR-5•O3SMe]"
display_unit = "nM"
endpoint_result = 14

[[record]]
compound = "COCCOCCOCCOCCOC(=O)Cc1cn(CCCCCCNC(=O)/C=C/c2cccnc2)c2ccccc12 [DGMS-RAR-PEG2]"
display_unit = "nM"
endpoint_result = 21

[[record]]
compound = "O=C(/C=C/c1cccnc1)NCCCCCCn1ccc2cccnc21"
display_unit = "nM"
endpoint_result = 1540

[[record]]
compound = "CC[Si]1(CC)c2ccccc2N(C(=O)CCCCCNC(=O)/C=C/c2cccnc2)C1C (stereo not drawn) [DGMS-RAR-5]"
display_unit = "nM"
endpoint_result = 11

[[record]]
compound = "[2H][C@@H](C(=O)NCCCCCC(=O)N1c2ccccc2CC1C)[C@@H]([2H])c1cccnc1 (stereo partly drawn) [DGMS-RAR-1 D2]"
display_unit = "nM"
endpoint_result = 632

[[record]]
compound = "COC(=O)Cc1cn(CCCCCCNC(=O)/C=C/c2cccnc2)c2ccccc12 [5.2.3h]"
display_unit = "nM"
endpoint_result = 100

[[record]]
compound = "O=C(CCc1cccnc1)NCCCCCCn1ccc2cc(OCc3ccccc3)ccc21 [DGMS-RAR-6 H2]"
display_unit = "nM"
endpoint_result = 582

[[record]]
compound = "CC[Si]1(CC)c2ccccc2N(C(=O)CCCCCNC(=O)CCc2cccnc2)C1C (stereo not drawn) [DGMS-RAR-5H2]"
display_unit = "nM"
endpoint_result = 368

[[record]]
compound = "Cc1cc2ccccc2n1CCCCCCNC(=O)CCc1cccnc1"
display_unit = "nM"
endpoint_result = 970

[[record]]
compound = "[2H][C@@H](C(=O)NCCCCCCn1c(-c2ccccc2)cc2ccccc21)[C@@H]([2H])c1cccnc1"
display_unit = "nM"
endpoint_result = 92


[Q] I would be grateful if you could share the reported IC50 for Cl.O=C(/C=C/c1cccnc1)NCCCCCCn1c(-c2ccccc2)cc2ccccc21 [DGMS-RARI•HCl] .
[A] 32

[Q] Which measured IC50 value corresponds to [2H][C@@H](C(=O)NCCCCCC(=O)N1CCc2cc(O)ccc21)[C@@H]([2H])c1cccnc1 ?
[A] 189

[Q] What does the data say about its IC50? Entry: Cc1ccc2c(ccn2CCCCCCNC(=O)CCc2cccnc2)c1
[A] 1530

[Q] Sample CC1Cc2ccccc2N1CCCCCCNC(=O)/C=C/c1cccnc1 (stereo not drawn) [DGMS-RAR-1•HCl] — what was its IC50?
[A] 47

[Q] Look up IC50: [2H][C@@H](C(=O)NCCCCCCn1ccc2cc(OCc3ccccc3)ccc21)[C@@H]([2H])c1cccnc1 (relative stereo) [DGMS-RAR-6 D2]
[A] 233

[Q] Given the compound O=C(/C=C/c1cccnc1)NCCCCCCn1ccc2cnccc21 [5.2.3k] , what is its reported IC50?
[A] 110
